meta.source: the nanobody polyreactivity screen of Harvey et al. (2022)

Method: yeast display, Sf9 membrane polyspecificity reagent, FACS + sequencing; frameworks hold sequencing errors

# Polymer Sequence, polyreactivity (PSR sort gate)
measured = [
    ("QVQLVESGGGLVQAGGSLRLSCAASGSTFFPNAMGWDRQAPGKERELVAAITRSDDDTYYADSVKGRFTISRVHAKNTVYLQMNCLKPEDTAVYYCAADGTSTDSPSWPGYEYWGQGTQVTVSS", "low polyreactivity"),
    ("QVQLVESGGGLVQAGGSLRLSCAASGSTFYPYAMGWYRQAPGKERELVAAITYRGGSTYYADSVKGRFTISRDNAKNTVYLQMNSLKPEDTAVYYCAADIGRHTDNYDPRYDYWGQGTQVTVSS", "low polyreactivity"),
    ("LVQLVESGGRLVQAGGSLRLSCAASGRTFPAYTMGWYRQSPGKERDLVAANYSSGGTTYYADSVKGRFTISRDNAKNTVYLQIYSINPEDNAVYYCNAYLGYYYYYLDALIGYDYWGQGTQVTVSS", "low polyreactivity"),
    ("QVQLVESGGGLVQAGGSLRLSCAASGLTFSYYAMGWYRQAPGKERELVAASSWSGGSTYYADSVKGRFTISRDNAKNTVYLQMNSLKPDDTAVYYCAKYPNRHYWYDYWGQGTQVTVSS", "low polyreactivity"),
]
